# SYSTEM: human MGL from HeLa cells (Homo sapiens (Human), UniProt Q99685)
# Sequence (Q99685 whole entry): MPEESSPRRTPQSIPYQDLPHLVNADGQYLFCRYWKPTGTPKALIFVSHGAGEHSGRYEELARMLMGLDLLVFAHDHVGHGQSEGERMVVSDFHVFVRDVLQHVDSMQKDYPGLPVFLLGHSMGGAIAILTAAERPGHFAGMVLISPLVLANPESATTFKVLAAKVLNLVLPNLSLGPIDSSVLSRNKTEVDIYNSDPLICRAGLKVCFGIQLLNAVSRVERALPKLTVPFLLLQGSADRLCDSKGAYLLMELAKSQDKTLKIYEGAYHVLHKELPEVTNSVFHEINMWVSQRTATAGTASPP
# TEST_DETAILS: MGL in vitro activity assay ([glycerol-1,3-3H]-oleoyl glycerol hydrolysis, activated carbon filtration)
# SETTINGS: 300 nM [Glycerol-1,3-3H]-oleoyl glycerol, one hour
pIC50: −log10 of the molar value.
PROPERTY_LABEL: pIC50

Some entries whose results are on file:
Cc1ccc(OC(F)F)cc1C1CCC2(C1)CN(C(=O)[C@H]1C[C@@](C)(O)C1)C2 (mixture of isomers)
7.38
Cc1c(C2CCC3(C2)CN(C(=O)[C@H]2C[C@@](C)(O)C2)C3)cccc1C(F)(F)F (mixture of isomers)
8.00

(1) Cn1ncc(C2CCC3(C2)CN(C(=O)[C@H]2C[C@@](C)(O)C2)C3)c1C(F)(F)F (mixture of isomers)
(2) C[C@]1(O)C[C@@H](C(=O)N2CC3(CC[C@@H](c4ccc(C5CC5)cc4)C3)C2)C1
**Query** Return label of the item with the larger pIC50. Candidates: 1 , 2 . Pick one and reply with its label.
**Result** 2
(2: 8.26, 1: 6.05)
